B1: Caulobacter ParB omega fusion; a variant is named by its letters at X, in order, B8GW30 (parent)
chain: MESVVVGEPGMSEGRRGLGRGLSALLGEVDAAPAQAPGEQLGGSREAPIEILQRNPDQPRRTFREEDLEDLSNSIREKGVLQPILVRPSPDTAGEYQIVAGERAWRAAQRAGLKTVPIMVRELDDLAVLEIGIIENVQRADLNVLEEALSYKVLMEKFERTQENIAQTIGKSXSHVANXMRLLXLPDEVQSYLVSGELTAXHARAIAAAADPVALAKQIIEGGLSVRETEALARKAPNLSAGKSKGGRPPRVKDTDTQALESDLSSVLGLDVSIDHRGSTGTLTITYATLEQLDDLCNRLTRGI

variants of: B1; assay: one-hybrid fitness for binding parS DNA (scaled: cognate 1, non-cognate 0); higher = stronger binding; details: with parS DNA site
Whole data set: some 81,000 sequences, median “one-hybrid fitness for binding parS DNA” near -0.17, cut for the highest 2% near 0.51. This is one part of a sample in which the highest values are shown more often than they occur.
Exercise: for every item that follows, state its recorded one-hybrid fitness for binding parS DNA.

The recorded one-hybrid fitness for binding parS DNA for entry `SDCR` equals ≤ 0.2

`WVPV` has a reported one-hybrid fitness for binding parS DNA of ≤ 0.2

The reported value for `VQHT` in terms of one-hybrid fitness for binding parS DNA is ≤ 0.2

For `TGHV` the variant record lists one-hybrid fitness for binding parS DNA as ≤ 0.2

Reported one-hybrid fitness for binding parS DNA of `AYIV` : ≤ 0.2

Lab note: `DRYP` gave one-hybrid fitness for binding parS DNA of ≤ 0.2

`NSQY` yielded one-hybrid fitness for binding parS DNA of ≤ 0.2

Record summary for `AAKA` : reported one-hybrid fitness for binding parS DNA = ≤ 0.2

GET /value?item= `PYKT` &field=one-hybrid fitness for binding parS DNA returns ≤ 0.2

GET /value?item= `ATEM` &field=one-hybrid fitness for binding parS DNA returns ≤ 0.2

The recorded one-hybrid fitness for binding parS DNA for entry `VTVI` equals ≤ 0.2

one-hybrid fitness for binding parS DNA reading for `NEVT` : ≤ 0.2

# variant `NRHC` ; its one-hybrid fitness for binding parS DNA = ≤ 0.2

Record summary for `CKSG` : reported one-hybrid fitness for binding parS DNA = ≤ 0.2

Notebook: `RAKA` , one-hybrid fitness for binding parS DNA read as 0.737
